- Tested on: MCF7
- measurementNotes: percentage of EdU-negative (G0-arrested) nuclei per well, 72 h; higher = more G0 arrest
- conditionContext: protein concentration 0.03125 µM; reference: sequence is the full UniProt precursor, the tested protein was the secreted form or ectodomain
assayReadout: percentage of EdU-negative (%)
Output spec: scalar in %, unitless text.

Please give the measured percentage of EdU-negative for this sequence: MRPGAPGPLWPLPWGALAWAVGFVSSMGSGNPAPGGVCWLQQGQEATCSLVLQTDVTRAECCASGNIDTAWSNLTHPGNKINLLGFLGLVHCLPCKDSCDGVECGPGKACRMLGGRPRCECAPDCSGLPARLQVCGSDGATYRDECELRAARCRGHPDLSVMYRGRCRKSCEHVVCPRPQSCVVDQTGSAHCVVCRAAPCPVPSSPGQELCGNNNVTYISSCHMRQATCFLGRSIGVRHAGSCAGTPEEPPGGESAEEEENFV
26

Please give the measured percentage of EdU-negative for this sequence: MVLLWLTLLLIALPCLLQTKEDPNPPITNLRMKAKAQQLTWDLNRNVTDIECVKDADYSMPAVNNSYCQFGAISLCEVTNYTVRVANPPFSTWILFPENSGKPWAGAENLTCWIHDVDFLSCSWAVGPGAPADVQYDLYLNVANRRQQYECLHYKTDAQGTRIGCRFDDISRLSSGSQSSHILVRGRSAAFGIPCTDKFVVFSQIEILTPPNMTAKCNKTHSFMHWKMRSHFNRKFRYELQIQKRMQPVITEQVRDRTSFQLLNPGTYTVQIRARERVYEFLSAWSTPQRFECDQEEGANTRAWRTSLLIALGTLLALVCVFVICRRYLVMQRLFPRIPHMKDPIGDSFQNDKLVVWEAGKAGLEECLVTEVQVVQKT
26.3

* * *

- Test system: MCF7;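 note: secreted proteins added to cultured cells, EdU pulse at the end, nuclei found by Hoechst imaging, EdU status from nuclear versus surrounding ring intensity ratio, PBS as neutral control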
- measurementNotes: percentage of EdU-negative (G0-arrested) nuclei per well, 72 h; higher = more G0 arrest
- conditionContext: protein concentration 0.0225 µM; reference: sequence is the full UniProt precursor, the tested protein was the secreted form or ectodomain
assayReadout: percentage of EdU-negative (%)
Output spec: scalar in %, unitless text.

Please give the measured percentage of EdU-negative for this sequence: MSEEVTYADLQFQNSSEMEKIPEIGKFGEKAPPAPSHVWRPAALFLTLLCLLLLIGLGVLASMFHVTLKIEMKKMNKLQNISEELQRNISLQLMSNMNISNKIRNLSTTLQTIATKLCRELYSKEQEHKCKPCPRRWIWHKDSCYFLSDDVQTWQESKMACAAQNASLLKINNKNALEFIKSQSRSYDYWLGLSPEEDSTRGMRVDNIINSSAWVIRNAPDLNNMYCGYINRLYVQYYHCTYKKRMICEKMANPVQLGSTYFREA [Q5QGZ9]
25.2

Please give the measured percentage of EdU-negative for this sequence: MLPPPRPAAALALPVLLLLLVVLTPPPTGARPSPGPDYLRRGWMRLLAEGEGCAPCRPEECAAPRGCLAGRVRDACGCCWECANLEGQLCDLDPSAHFYGHCGEQLECRLDTGGDLSRGEVPEPLCACRSQSPLCGSDGHTYSQICRLQEAARARPDANLTVAHPGPCESGPQIVSHPYDTWNVTGQDVIFGCEVFAYPMASIEWRKDGLDIQLPGDDPHISVQFRGGPQRFEVTGWLQIQAVRPSDEGTYRCLGRNALGQVEAPASLTVLTPDQLNSTGIPQLRSLNLVPEEEAESEENDDYY [Q96I82]
25.7

Please give the measured percentage of EdU-negative for this sequence: MGTSLLCWMALCLLGADHADTGVSQNPRHKITKRGQNVTFRCDPISEHNRLYWYRQTLGQGPEFLTYFQNEAQLEKSRLLSDRFSAERPKGSFSTLEIQRTEQGDSAMYLCASSL
27
